- Tested on: HeLa
- measurementNotes: Cytotoxicity against human HeLa cells assessed as reduction in cell number after 72 hrs by cell counting assay
- Assay type: functional, cell-based
experimentalReadout: IC50 (µM)
# output: bare number, implied unit µM

Ask: Supply IC50 value. Item: Clc1nc(Cl)c2sccc2n1
Result: 3.9

Ask: Supply reported IC50 belonging to this compound: Clc1nc(Cl)c2[nH]ccc2n1
Result: 19

Ask: Name the recorded IC50 of the item Clc1nc(Cl)c2scc(Br)c2n1 in your answer.
Result: 4.3

Ask: Provide one value: measured IC50 of Nc1nc(Cl)nc2c(Br)csc12
Result: 96

Ask: Identify the reported IC50 for the following entry. Clc1nc(-n2cncn2)c2scc(Br)c2n1
Result: 116

Ask: Determine its reported IC50: COc1nc(OC)c2scc(Br)c2n1
Result: 203
